System under test: Full length human recombinant PIKFYVE (Homo sapiens, UniProt Q9Y2I7)
Construct: Full length human recombinant PIKFYVE
Sequence (Q9Y2I7 whole entry): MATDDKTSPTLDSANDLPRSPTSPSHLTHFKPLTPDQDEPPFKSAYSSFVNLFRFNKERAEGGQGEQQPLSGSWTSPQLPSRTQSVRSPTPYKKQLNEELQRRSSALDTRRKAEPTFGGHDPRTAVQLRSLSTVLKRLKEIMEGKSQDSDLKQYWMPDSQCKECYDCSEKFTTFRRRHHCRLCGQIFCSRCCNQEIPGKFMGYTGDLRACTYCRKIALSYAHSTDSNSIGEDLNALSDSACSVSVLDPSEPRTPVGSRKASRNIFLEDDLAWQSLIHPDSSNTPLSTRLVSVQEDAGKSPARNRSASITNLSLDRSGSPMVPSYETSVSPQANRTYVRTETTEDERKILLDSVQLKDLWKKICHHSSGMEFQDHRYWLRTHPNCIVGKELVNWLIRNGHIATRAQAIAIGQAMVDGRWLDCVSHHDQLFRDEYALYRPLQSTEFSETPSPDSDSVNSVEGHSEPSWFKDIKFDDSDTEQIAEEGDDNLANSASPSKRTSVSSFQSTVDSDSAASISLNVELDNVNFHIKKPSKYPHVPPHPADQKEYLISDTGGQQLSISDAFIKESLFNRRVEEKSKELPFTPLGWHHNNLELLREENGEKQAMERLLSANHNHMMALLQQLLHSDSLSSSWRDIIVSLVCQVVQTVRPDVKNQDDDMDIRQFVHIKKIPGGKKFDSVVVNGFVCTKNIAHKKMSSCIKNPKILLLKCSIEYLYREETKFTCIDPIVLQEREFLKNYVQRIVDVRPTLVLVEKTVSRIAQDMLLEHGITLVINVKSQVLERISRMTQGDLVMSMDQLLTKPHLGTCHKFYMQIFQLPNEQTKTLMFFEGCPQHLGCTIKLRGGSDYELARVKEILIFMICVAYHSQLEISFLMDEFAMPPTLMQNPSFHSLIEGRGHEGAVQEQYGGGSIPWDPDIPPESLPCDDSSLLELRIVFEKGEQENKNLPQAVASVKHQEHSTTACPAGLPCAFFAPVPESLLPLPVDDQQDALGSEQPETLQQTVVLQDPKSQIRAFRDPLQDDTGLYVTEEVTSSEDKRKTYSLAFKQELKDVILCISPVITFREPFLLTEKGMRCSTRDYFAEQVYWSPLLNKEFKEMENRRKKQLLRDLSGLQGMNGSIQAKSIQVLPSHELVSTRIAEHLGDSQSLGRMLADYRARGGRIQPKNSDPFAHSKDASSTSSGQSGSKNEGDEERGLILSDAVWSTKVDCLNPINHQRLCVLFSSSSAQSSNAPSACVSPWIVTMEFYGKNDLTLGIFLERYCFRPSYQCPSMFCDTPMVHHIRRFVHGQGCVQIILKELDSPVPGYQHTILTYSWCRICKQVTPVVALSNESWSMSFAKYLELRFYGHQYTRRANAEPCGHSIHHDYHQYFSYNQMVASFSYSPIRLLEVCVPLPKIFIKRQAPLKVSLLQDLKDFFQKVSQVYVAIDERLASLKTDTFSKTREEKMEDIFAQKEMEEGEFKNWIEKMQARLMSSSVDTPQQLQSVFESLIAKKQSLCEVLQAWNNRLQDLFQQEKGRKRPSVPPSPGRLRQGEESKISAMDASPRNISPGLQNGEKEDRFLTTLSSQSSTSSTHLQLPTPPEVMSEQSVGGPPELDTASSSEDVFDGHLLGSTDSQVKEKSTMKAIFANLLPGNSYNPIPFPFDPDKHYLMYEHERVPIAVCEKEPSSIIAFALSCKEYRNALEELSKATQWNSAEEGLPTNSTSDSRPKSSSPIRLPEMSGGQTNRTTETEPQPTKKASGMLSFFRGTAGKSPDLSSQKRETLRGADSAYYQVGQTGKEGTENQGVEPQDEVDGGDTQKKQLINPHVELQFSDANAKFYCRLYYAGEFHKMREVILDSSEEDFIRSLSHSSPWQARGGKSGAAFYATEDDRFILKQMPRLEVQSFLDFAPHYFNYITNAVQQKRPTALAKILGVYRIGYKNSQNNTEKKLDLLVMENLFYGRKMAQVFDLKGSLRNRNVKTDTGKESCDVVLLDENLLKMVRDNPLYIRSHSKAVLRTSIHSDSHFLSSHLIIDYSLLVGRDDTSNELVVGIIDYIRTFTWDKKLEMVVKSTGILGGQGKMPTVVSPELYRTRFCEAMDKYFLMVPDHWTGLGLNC
Test protocol: Inhibition of PIKfyve (microfluidic electrophoresis kinase assay, PI3P/PS substrate)
Condition label: 12 concentrations
Structures can show the parent of a compound that is named as a salt.
Doc: threshold 80 nM (exclusive). Items with IC50 beneath it return fulfilled; others return not fulfilled.

Would you please look over these solved cases?
COCCNC(=O)c1cc2nc(-n3ccc(-c4cccc(C)c4)n3)nc(N3CCOCC3)c2o1	fulfilled
c1ccc(-c2ccn(-c3nc(N4CCOCC4)c4oc(-c5cccnc5)cc4n3)n2)cc1	not fulfilled

Please determine if `Cc1c(C(=O)NC2CC2)oc2c(N3CCOCC3)nc(-n3ccc(-c4ccccc4)n3)nc12` is below 80 nM in terms of IC50. not fulfilled

Same for `COCCNC(=O)c1cc2nc(Nc3cc(-c4ccccc4)[nH]n3)nc(N3CCOCC3)c2o1` fulfilled

Repeat for the following compound: `Cc1cc(-c2cc3nc(-n4ccc(-c5ccccc5)n4)nc(N4CCOCC4)c3o2)on1` fulfilled

// query: `Cc1cccc(-c2ccn(-c3nc(N4CCOCC4)c4oc(-c5ccccn5)cc4n3)n2)n1` not fulfilled

Now give it for `Cc1cccc(-c2ccn(-c3nc(N4CCOCC4)c4oc(C(N)=O)cc4n3)n2)c1` too. not fulfilled

And then `Cc1cccc(-c2cnn(-c3nc(N4CCOCC4)c4oc(C(=O)NCCCCN(C)C)cc4n3)c2)c1` , what is it? fulfilled

Check `O=C(NCC1COC1)c1cc2nc(-n3cc(-c4ccccc4)cn3)nc(N3CCOCC3)c2o1` too. not fulfilled

c1ccc2c(Nc3nc(N4CCOCC4)c4oc(-c5ccncc5)cc4n3)n[nH]c2c1 [Compound 50, hydrochloride] ? not fulfilled

---

System under test: Full length human recombinant PIKFYVE (Homo sapiens)
Construct: Full length human recombinant PIKFYVE
Test protocol: Inhibition of PIKfyve (microfluidic electrophoresis kinase assay, PI3P/PS substrate)
Condition label: 12 concentrations
Observed property: pIC50
Hey, just a heads up that pIC50 is the negative log base 10 of the concentration in molar.

Cc1cccc(-c2cnn(-c3nc(N4CCOCC4)c4oc(C(=O)NCCS(C)(=O)=O)cc4n3)c2)c1 [Compound 150]	6.99
COCCNC(=O)c1cc2nc(-n3cc(-c4cccc(C)c4)cn3)nc(N3CCOCC3)c2o1 [Compound 117]	7.43
Cc1cccc(-c2cnn(-c3nc(N4CCOCC4)c4oc(C(=O)NCCCS(=O)(=O)N(C)C)cc4n3)c2)c1 [Compound 120]	7.79

Next item in the queue.
Consider the compound shown here: Cc1cccc(-c2ccn(-c3nc(N4CCOCC4)c4oc(C(=O)NS(C)(=O)=O)cc4n3)n2)c1 [Compound 98] What is its recorded pIC50? 7.10

---

System under test: Full length human recombinant PIKFYVE (Homo sapiens, UniProt Q9Y2I7)
Construct: Full length human recombinant PIKFYVE
Test protocol: Inhibition of PIKfyve (microfluidic electrophoresis kinase assay, PI3P/PS substrate)
Condition label: 12 concentrations
Structures can show the parent of a compound that is named as a salt.
Observed property: IC50 (nM)
Express your answer in nM, writing the number without its unit.

// below: answered molecules
COc1cccc(-c2ccn(-c3nc(N4CCOCC4)c4oc(C(=O)NC5CCOCC5)cc4n3)n2)c1	3.4
Cc1cccc(-c2ccn(-c3nc(N4CCOCC4)c4oc(-c5cc(C)n[nH]5)cc4n3)n2)c1	0.6
Cc1cccc(-c2ccn(-c3nc(N4CCOCC4)c4oc(C(=O)NCC5COC5)cc4n3)n2)c1	32.3
c1ccc(-n2cc(Nc3nc(N4CCOCC4)c4oc(-c5ccncc5)cc4n3)cn2)cc1	21
Cc1cccc(-c2ccn(-c3nc(N4CCOCC4)c4oc(-c5nccs5)cc4n3)n2)c1	1.9
O=C(NC1CC1)c1cc2nc(Nc3cc(-c4ccccc4)[nH]n3)nc(N3CCOCC3)c2o1	4.3
O=C(NCC1CC1)c1cc2nc(-n3ccc(-c4ccccc4)n3)nc(N3CCOCC3)c2o1	220
CNC(=O)c1cc2nc(Nc3cc(C4CCCC4)n[nH]3)nc(N3CCOCC3)c2o1	4090

Consider the molecule `Cc1cccc(-c2cc(Nc3nc(N4CCOCC4)c4oc(-c5ccncc5)cc4n3)[nH]n2)c1` and give its measured IC50. 0.8

And what about the molecule `c1ccc(-c2nnc(Nc3nc(N4CCOCC4)c4oc(-c5ccncc5)cc4n3)o2)cc1` ? 52

Now the molecule `Cc1cccc(-c2cnn(-c3nc(N4CCOCC4)c4oc(-c5cc(C)n(CCN(C)C)n5)cc4n3)c2)c1` 0.3

Here is the next molecule: `c1cc(-c2cc(Nc3nc(N4CCOCC4)c4oc(-c5ccncc5)cc4n3)[nH]n2)ccn1` 44.6

And then `[2H]C([2H])([2H])c1cccc(-c2ccn(-c3nc(N4CCOCC4)c4oc(-c5ccccn5)cc4n3)n2)c1` , what is it? 2.2

Also c1cc(-c2cc(Nc3nc(N4CCOCC4)c4occc4n3)[nH]n2)ccn1 [Compound 10, hydrochloride] ? 6220

Queued: `Clc1cccc(-c2ccn(-c3nc(N4CCOCC4)c4oc(-c5ccccn5)cc4n3)n2)c1` 10.1

---

System under test: Full length human recombinant PIKFYVE (Homo sapiens)
Construct: Full length human recombinant PIKFYVE
Test protocol: Inhibition of PIKfyve (microfluidic electrophoresis kinase assay, PI3P/PS substrate)
Condition label: 12 concentrations
Observed property: IC50

CCNC(=O)c1cc2nc(-n3cc(-c4cccc(C)c4)cn3)nc(N3CC(F)(F)OC(F)(F)C3)c2o1	> 20 µM
CCNC(=O)c1cc2nc(Nc3cc(-c4ccccc4)[nH]n3)nc(N3CCOCC3)c2o1	0.002 µM

What does the record list as IC50 for `O=C(O)c1cc2nc(Nc3cc(-c4ccccc4)[nH]n3)nc(N3CCOCC3)c2o1` ? 0.252 µM

Same again, this time with `Cn1ccc(-c2cc3nc(-n4cc(Br)cn4)nc(N4CCOCC4)c3o2)n1` 0.269 µM

Try `c1ccc(-c2cnn(-c3nc(N4CCOCC4)c4oc(-c5ccccn5)cc4n3)c2)cc1` next. 0.0404 µM

Field entry: `Cc1cccc(-c2ccn(-c3nc(N4CCOCC4)c4oc(-c5cc(C)ns5)cc4n3)n2)c1` 0.0038 µM

Input `O=C(NCC1CC1)c1cc2nc(-n3cc(-c4ccccc4)cn3)nc(N3CCOCC3)c2o1` 0.0493 µM

Proceed to `Cc1cccc(-c2cnn(-c3nc(N4CCOCC4)c4oc(-c5ccccn5)cc4n3)c2)c1` 0.0112 µM

---

System under test: Full length human recombinant PIKFYVE (Homo sapiens, UniProt Q9Y2I7)
Construct: Full length human recombinant PIKFYVE
Test protocol: Inhibition of PIKfyve (microfluidic electrophoresis kinase assay, PI3P/PS substrate)
Condition label: 12 concentrations
Procedure: Full length human recombinant PIKFYVE expressed in baculovirus expression system as N-terminal GST-fusion protein (265 kDa) was obtained from Carna Biosciences (Kobe, Japan). […] The kinase reactions were assembled in 384-well plates (Greiner) in a total volume of 20 mL as follows. […] Terminated plates were analyzed on a microfluidic electrophoresis instrument (Caliper LabChip® 3000, Caliper Life Sciences/Perkin Elmer). […] Percent inhibition (Pinh) was determined using the following equation: […]
pIC50: −log10 of the molar value. Where a name gives a salt, the structure may show the parent alone.
Tag: yes if measured pIC50 is not below 7, no if it is.

Check out these entries, answers already filled in.
[2H]C([2H])([2H])c1cccc(-c2ccn(-c3nc(N4CCOCC4)c4oc(-c5ccn(C)n5)cc4n3)n2)c1	yes
Cn1ccc(-c2cc3nc(-n4cc(-c5ccccc5)cn4)nc(N4CCOCC4)c3o2)n1	yes
CNC(=O)c1cc2nc(Nc3cc(C4CC4)n[nH]3)nc(N3CCOCC3)c2o1 [Compound 78, hydrochloride]	no
CN1CCC(NC(=O)c2cc3nc(-n4ccc(-c5ccccc5)n4)nc(N4CCOCC4)c3o2)CC1	no
CC(=O)NCCn1nc(-c2cc3nc(-n4cc(-c5cccc(C)c5)cn4)nc(N4CCOCC4)c3o2)cc1C	yes

Given O=C(NC1CCOC1)c1cc2nc(-n3cc(-c4ccccc4)cn3)nc(N3CCOCC3)c2o1 (stereo not shown) , state whether its pIC50 is at least 7. yes

---

System under test: PI3Kδ (Homo sapiens, UniProt O00329)
Construct: Full-length N-terminal; GST (N)
Sequence (O00329 whole entry): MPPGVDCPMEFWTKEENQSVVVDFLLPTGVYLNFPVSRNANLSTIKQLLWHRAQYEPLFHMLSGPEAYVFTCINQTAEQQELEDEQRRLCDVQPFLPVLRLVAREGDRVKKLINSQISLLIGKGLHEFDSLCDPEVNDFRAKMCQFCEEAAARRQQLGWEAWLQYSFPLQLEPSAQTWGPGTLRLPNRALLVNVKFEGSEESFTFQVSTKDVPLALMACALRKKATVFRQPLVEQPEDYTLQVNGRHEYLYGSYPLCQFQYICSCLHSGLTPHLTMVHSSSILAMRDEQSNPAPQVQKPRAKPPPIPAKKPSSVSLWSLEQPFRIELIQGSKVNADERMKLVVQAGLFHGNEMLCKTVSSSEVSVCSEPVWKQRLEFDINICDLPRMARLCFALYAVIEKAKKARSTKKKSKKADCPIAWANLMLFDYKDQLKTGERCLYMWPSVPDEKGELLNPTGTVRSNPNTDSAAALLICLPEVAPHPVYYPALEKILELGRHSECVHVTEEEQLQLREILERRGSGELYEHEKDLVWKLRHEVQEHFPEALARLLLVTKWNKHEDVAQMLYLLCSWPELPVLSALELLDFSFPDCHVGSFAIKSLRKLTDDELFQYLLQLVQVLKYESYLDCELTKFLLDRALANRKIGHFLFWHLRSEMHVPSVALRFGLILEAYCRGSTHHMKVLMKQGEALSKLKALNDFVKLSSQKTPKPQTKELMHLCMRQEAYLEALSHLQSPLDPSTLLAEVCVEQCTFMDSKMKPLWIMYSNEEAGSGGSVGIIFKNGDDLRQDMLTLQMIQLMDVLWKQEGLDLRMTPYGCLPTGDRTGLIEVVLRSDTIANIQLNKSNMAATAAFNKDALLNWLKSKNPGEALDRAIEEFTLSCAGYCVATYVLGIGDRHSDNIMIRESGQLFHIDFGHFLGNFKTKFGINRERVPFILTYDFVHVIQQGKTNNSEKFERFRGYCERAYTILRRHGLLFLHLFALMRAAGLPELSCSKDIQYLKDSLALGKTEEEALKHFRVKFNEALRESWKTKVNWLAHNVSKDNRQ
Sequence (P27986 whole entry partner): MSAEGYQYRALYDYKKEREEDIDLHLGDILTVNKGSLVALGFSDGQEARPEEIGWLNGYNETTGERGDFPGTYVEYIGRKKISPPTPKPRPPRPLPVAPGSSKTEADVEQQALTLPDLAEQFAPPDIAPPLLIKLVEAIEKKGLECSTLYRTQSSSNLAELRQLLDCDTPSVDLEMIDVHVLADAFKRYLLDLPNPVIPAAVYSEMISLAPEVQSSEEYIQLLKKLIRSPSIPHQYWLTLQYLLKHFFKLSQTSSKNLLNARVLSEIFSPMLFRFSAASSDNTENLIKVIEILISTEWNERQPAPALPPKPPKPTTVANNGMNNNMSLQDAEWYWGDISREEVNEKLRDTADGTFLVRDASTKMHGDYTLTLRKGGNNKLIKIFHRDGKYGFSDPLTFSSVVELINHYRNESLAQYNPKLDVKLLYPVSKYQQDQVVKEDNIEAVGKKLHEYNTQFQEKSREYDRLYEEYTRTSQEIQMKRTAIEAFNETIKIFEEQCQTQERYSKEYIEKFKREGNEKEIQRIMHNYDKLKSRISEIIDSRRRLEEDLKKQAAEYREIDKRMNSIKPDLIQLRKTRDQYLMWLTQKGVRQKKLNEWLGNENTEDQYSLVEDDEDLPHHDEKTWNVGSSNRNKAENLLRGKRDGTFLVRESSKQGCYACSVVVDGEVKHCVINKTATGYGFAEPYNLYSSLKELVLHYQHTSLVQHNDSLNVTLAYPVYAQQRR
Test protocol: Inhibition of PI3K isoforms: PI3Kδ (microfluidic electrophoresis kinase assay, PIP2/PS substrate)
Condition label: p110δ/p85α, ATP 90 μM; read-out: PI3Kd IC50
Structures can show the parent of a compound that is named as a salt.
Observed property: IC50 (nM)
# number only, unit nM dropped from output

Give IC50 (PI3Kδ (Homo sapiens, UniProt O00329)) of the following compound: `CNC(=O)c1cc2nc(Nc3cc(CC4CCCC4)n[nH]3)nc(N3CCOCC3)c2o1` 218

Same for c1ccc(-c2cc(Nc3nc(N4CCOCC4)c4oc(-c5ccncc5)cc4n3)[nH]n2)cc1 [Compound 1, hydrochloride] 2710

Try `c1cc(-c2cc3nc(Nc4cc(C5CCC5)n[nH]4)nc(N4CCOCC4)c3o2)ccn1` next. 164

Also `CNC(=O)c1cc2nc(Nc3cc(C4CCC4)n[nH]3)nc(N3CCOCC3)c2o1` , if possible. 454
